ratio IC50 high HSA/IC50 low HSA values by entry
# testedTarget: T1, human GLP-1 receptor (human, UniProt P43220 24-463)
# T1 construct: whole, on cells; Used as purified membranes of the transfected hamster cells, not whole cells; also called hGLP-1
# test: SPA, 2.0% vs 0.005% HSA
*1 amine or outer side, *2 acyl side, *3 side chain or, on linkers, in order; H or OH if unused. Where no end group is shown, it is not given here. Side-chain parts run from the residue outwards. [ ]: non-standard residue; d: D form. The star is where a group is joined. C16 diacid = O=C(O)CCCCCCCCCCCCCCC(=O)*; γGlu = O=C(O)[C@H](CCC(=O)[*:2])N[*:1]; 13‑carboxytridecanoyl = C14 diacid; AEEA = NCCOCCOCC(=O)O; Aib = CC(C)(N)C(=O)O

Take a look at these entries with their results.
* HAEGTFTSDVSK([AEEA-AEEA-γGlu-13‑carboxytridecanoyl])YLEEQAAHK([AEEA-AEEA-γGlu-13‑carboxytridecanoyl])FIAWLVRGRG [GLP-1 derivative of Example 60: [Lys18,Glu22,His26,Lys27,Arg34]-GLP-1-(7-37)-peptide] | > 1
* H[Aib]EGTFTSDVSK([AEEA-AEEA-γGlu-γGlu-C16 diacid])YLEEQAVREFIAK([AEEA-AEEA-γGlu-γGlu-C16 diacid])LVRGRG [GLP-1 derivative of Example 134: [Aib8,Lys18,Glu22,Val25,Arg26,Lys31,Arg34]-GLP-1-(7-37)-peptide] | > 1
* H[Aib]EGTFTSDVSK([AEEA-AEEA-γGlu-2‑phenylcyclopropanecarbonyl])YLEEQAAK([AEEA-AEEA-γGlu-2‑phenylcyclopropanecarbonyl])EFIAWLVQGRG [GLP-1 derivative of Example 79: [Aib8,Lys18,Glu22,Gln34]-GLP-1-(7-37)-peptide] | > 1

Would you kindly look at the next entry?
Please indicate ratio IC50 high HSA/IC50 low HSA recorded for HAEGTFTSDVSK([AEEA-AEEA-γGlu-13‑carboxytridecanoyl])YLEEQAAHK([AEEA-AEEA-γGlu-13‑carboxytridecanoyl])FIAWLVQGRG [GLP-1 derivative of Example 61: [Lys18,Glu22,His26,Lys27,Gln34]-GLP-1-(7-37)-peptide]
> 1
